The origin of these recorded values is patent US7906507B2.

SYSTEM NAME: cloned human GLP-1 receptor (Homo sapiens, UniProt P43220)
Sequence (P43220 24-463): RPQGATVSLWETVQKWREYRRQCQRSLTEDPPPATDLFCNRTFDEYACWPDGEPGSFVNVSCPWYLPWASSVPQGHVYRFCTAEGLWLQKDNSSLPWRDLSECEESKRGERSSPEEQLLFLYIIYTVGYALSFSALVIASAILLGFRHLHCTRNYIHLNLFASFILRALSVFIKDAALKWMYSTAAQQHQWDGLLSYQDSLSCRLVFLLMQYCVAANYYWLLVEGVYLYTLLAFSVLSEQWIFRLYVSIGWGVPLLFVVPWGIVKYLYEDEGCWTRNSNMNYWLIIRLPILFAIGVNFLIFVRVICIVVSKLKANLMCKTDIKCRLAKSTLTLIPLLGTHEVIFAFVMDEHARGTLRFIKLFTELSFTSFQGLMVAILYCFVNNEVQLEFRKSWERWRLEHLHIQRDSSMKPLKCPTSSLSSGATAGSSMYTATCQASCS
ASSAY REMARKS: Functional cell-based assay: cAMP functional assay
Threshold-based label: EC50 under 400 nM gives t, EC50 not under 400 nM gives f.

Consider the following illustrative entries.
molecule="CC(=O)Nc1nc(C)c(S(=O)(=O)N2Cc3cc4c(cc3C[C@H]2C(=O)N[C@@H](Cc2ccc(-c3ccc(C#N)cc3)cc2)C(=O)O)NC(=O)C(c2ccc(OCc3ccc(Cl)c(Cl)c3)cc2)O4)s1 (single isomer, unassigned) [Example 81]" label_value=t
molecule="N#Cc1ccc(-c2ccc(C[C@H](NC(=O)[C@@H]3Cc4cc5c(cc4CN3Cc3nccs3)OC(c3ccc(OCc4cccc(Cl)c4)cc3)C(=O)N5)C(=O)O)cc2)cc1 (stereo partly shown) [Example 67]" label_value=f
molecule="CC[C@@H](c1ccccc1)N1Cc2cc3c(cc2C[C@H]1C(=O)N[C@@H](Cc1ccc(-c2ccc(C#N)cc2)cc1)C(=O)O)N(C)C(=O)[C@@H](c1ccc(OCc2ccc(Cl)c(Cl)c2)cc1)O3 [Example 86]" label_value=t
molecule="CCc1ccccc1CN1Cc2cc3c(cc2C[C@H]1C(=O)N[C@@H](Cc1ccc(-c2ccc(C#N)cc2)cc1)C(=O)O)N(C)C(=O)C(c1ccc(OCc2ccc(Cl)c(Cl)c2)cc1)O3 (stereo partly shown) [Example 71]" label_value=f
molecule="Cc1cccc(CN2Cc3cc4c(cc3C[C@H]2C(=O)N[C@@H](Cc2ccc(-c3ccc(C#N)cc3)cc2)C(=O)O)NC(=O)C(c2ccc(OCc3ccc(Cl)c(Cl)c3)cc2)O4)n1 (stereo partly shown) [Example 44]" label_value=f

Please let me know if Cc1ccccc1CN1Cc2cc3c(cc2C[C@H]1C(=O)N[C@@H](Cc1ccc(-c2ccc(C#N)cc2)cc1)C(=O)O)NC(=O)C(c1ccc(OCc2ccc(Cl)c(Cl)c2)cc1)O3 (stereo partly shown) [Example 38] shows EC50 below 400 nM. f

Please let me know if N#Cc1ccc(-c2ccc(C[C@H](NC(=O)[C@@H]3Cc4cc5c(cc4CN3C(=O)C3CCC3)OC(c3ccc(OCc4ccc(Cl)c(Cl)c4)cc3)C(=O)N5)C(=O)O)cc2)cc1 (stereo partly shown) [Example 12] shows EC50 below 400 nM. f

Please let me know if N#Cc1ccc(-c2ccc(C[C@H](NC(=O)[C@@H]3Cc4cc5c(cc4CN3C(=O)[C@H]3CCCO3)OC(c3ccc(OCc4ccc(Cl)c(Cl)c4)cc3)C(=O)N5)C(=O)O)cc2)cc1 (stereo partly shown) [Example 6] shows EC50 below 400 nM. f

Please let me know if N#Cc1ccc(-c2ccc(C[C@H](NC(=O)[C@@H]3Cc4cc5c(cc4CN3CC3CC3)OC(c3ccc(OCc4ccc(Cl)c(Cl)c4)cc3)C(=O)N5)C(=O)O)cc2)cc1 (stereo partly shown) [Example 54] shows EC50 below 400 nM. f

Please let me know if N#Cc1ccc(-c2ccc(C[C@H](NC(=O)[C@@H]3Cc4cc5c(cc4CN3C(=O)O[C@@H]3CCOC3)OC(c3ccc(OCc4ccc(Cl)c(Cl)c4)cc3)C(=O)N5)C(=O)O)cc2)cc1 (stereo partly shown) [Example 19] shows EC50 below 400 nM. t

----------
SYSTEM NAME: cloned human GLP-1 receptor (Homo sapiens)
ASSAY REMARKS: Functional cell-based assay: cAMP functional assay
MEASUREMENT LABEL: pEC50
Scale explanation: pEC50 corresponds to minus log10 of a concentration expressed in moles per litre.

compound="N#Cc1ccc(-c2ccc(C[C@H](NC(=O)[C@@H]3Cc4cc5c(cc4CN3S(=O)(=O)c3cccc([N+](=O)[O-])c3)OC(c3ccc(OCc4ccc(Cl)c(Cl)c4)cc3)C(=O)N5)C(=O)O)cc2)cc1 (some centres unmarked)" measurement_label=pEC50 measured_value=6.09

Answer briefly: pEC50 recorded on cloned human GLP-1 receptor (Homo sapiens) for CN1C(=O)C(c2ccc(OCc3ccc(Cl)c(Cl)c3)cc2)Oc2cc3c(cc21)C[C@@H](C(=O)N[C@@H](Cc1ccc(-c2ccc(C#N)cc2)cc1)C(=O)O)N(C1CCCCC1)C3 (some centres unmarked) 6.61

Answer briefly: pEC50 recorded on cloned human GLP-1 receptor (Homo sapiens) for "CC[C@@H](c1ccccc1)N1Cc2cc3c(cc2C[C@H]1C(=O)N[C@@H](Cc1ccc(-c2ccc(OC)cc2)cc1)C(=O)O)N(C)C(=O)[C@H](c1ccc(OCc2ccc(Cl)c(Cl)c2)cc1)O3" 6.37

Answer briefly: pEC50 recorded on cloned human GLP-1 receptor (Homo sapiens) for Cn1ccnc1CN1Cc2cc3c(cc2C[C@H]1C(=O)N[C@@H](Cc1ccc(-c2ccc(C#N)cc2)cc1)C(=O)O)NC(=O)C(c1ccc(OCc2ccc(Cl)c(Cl)c2)cc1)O3 (some centres unmarked) 6.05

Answer briefly: pEC50 recorded on cloned human GLP-1 receptor (Homo sapiens) for N#Cc1ccc(-c2ccc(C[C@H](NC(=O)[C@@H]3Cc4cc5c(cc4CN3C(=O)OC3CCC(O)CC3)OC(c3ccc(OCc4ccc(Cl)c(Cl)c4)cc3)C(=O)N5)C(=O)O)cc2)cc1 (some centres unmarked) 6.05

----------
SYSTEM NAME: cloned human GLP-1 receptor (Homo sapiens)
Construct: expressed in transfected cells; host or cells: CHO or HEK-293 cells
ASSAY REMARKS: Functional cell-based assay: cAMP functional assay
ASSAY CONTEXT: 0.5 h; percentage relative to maximal GLP-1-induced cAMP accumulation; na = not active in the assay; read-out: % activation
MEASUREMENT LABEL: Emax (%)
Entry rule: numbers only, all in %.

compound="N#Cc1ccc(-c2ccc(C[C@H](NC(=O)[C@@H]3Cc4cc5c(cc4CN3C(=O)[C@H]3CCCO3)OC(c3ccc(OCc4ccc(Cl)c(Cl)c4)cc3)C(=O)N5)C(=O)O)cc2)cc1 (stereo partly drawn) [Example 6]" measured_value=7
compound="CC(C)OC(=O)N1Cc2cc3c(cc2C[C@H]1C(=O)N[C@@H](Cc1ccc(-c2ccc(C#N)cc2)cc1)C(=O)O)NC(=O)C(c1ccc(OCc2ccc(Cl)c(Cl)c2)cc1)O3 (stereo partly drawn) [Example 8]" measured_value=64

With those in mind, consider the next compound.
In one line, give reported Emax of the entry N#Cc1ccc(-c2ccc(C[C@H](NC(=O)[C@@H]3Cc4cc5c(cc4CN3S(=O)(=O)c3ccccc3)OC(c3ccc(OCc4ccc(Cl)c(Cl)c4)cc3)C(=O)N5)C(=O)O)cc2)cc1 (stereo partly drawn) [Example 14] . 77

----------
SYSTEM NAME: cloned human GLP-1 receptor (Homo sapiens, UniProt P43220)
ASSAY REMARKS: Functional cell-based assay: cAMP functional assay
Reported pEC50 values are given for each entry in this list.
Scale explanation: pEC50 corresponds to minus log10 of a concentration expressed in moles per litre.

The following molecules have reported results that may help.
molecule="CC[C@@H](c1ccccc1)N1Cc2cc3c(cc2C[C@H]1C(=O)N[C@@](C)(Cc1ccc(-c2ccc(C#N)cc2)cc1)C(=O)O)N(C)C(=O)C(c1ccc(OCc2ccc(Cl)c(Cl)c2)cc1)O3 (stereo in doubt) [Example 97]" measured_value=7.42
molecule="Cc1cc(C(=O)N2Cc3cc4c(cc3C[C@H]2C(=O)N[C@@H](Cc2ccc(-c3ccc(C#N)cc3)cc2)C(=O)O)NC(=O)C(c2ccc(OCc3ccc(Cl)c(Cl)c3)cc2)O4)no1 (stereo partly shown) [Example 31]" measured_value=6.00
molecule="COc1ccc(C(=O)N2Cc3cc4c(cc3C[C@H]2C(=O)N[C@@H](Cc2ccc(-c3ccc(C#N)cc3)cc2)C(=O)O)NC(=O)C(c2ccc(OCc3ccc(Cl)c(Cl)c3)cc2)O4)cc1 (stereo partly shown) [Example 23]" measured_value=5.89

In one line, give reported pEC50 of the entry N#Cc1ccc(-c2ccc(C[C@H](NC(=O)[C@@H]3Cc4cc5c(cc4CN3C(=O)c3ccccc3)OC(c3ccc(OCc4cccc(Cl)c4)cc3)C(=O)N5)C(=O)O)cc2)cc1 (stereo partly shown) [Example 59] . 6.12

In one line, give reported pEC50 of the entry N#Cc1ccc(-c2ccc(C[C@H](NC(=O)[C@@H]3Cc4cc5c(cc4CN3C(=O)c3ccccc3)OC(c3ccc(OCc4ccc(Cl)c(Cl)c4)cc3)C(=O)N5)C(=O)O)cc2)cc1 (stereo partly shown) [Example 15] . 6.84

In one line, give reported pEC50 of the entry N#Cc1ccc(-c2ccc(C[C@H](NC(=O)[C@@H]3Cc4cc5c(cc4CN3C(=O)c3ccccc3)OC(c3ccc(OCc4ccc(Cl)cc4)cc3)C(=O)N5)C(=O)O)cc2)cc1 (stereo partly shown) [Example 60] . 5.79

In one line, give reported pEC50 of the entry N#Cc1ccc(-c2ccc(C[C@H](NC(=O)[C@@H]3Cc4cc5c(cc4CN3C(=O)OC3CCC(O)C3)OC(c3ccc(OCc4ccc(Cl)c(Cl)c4)cc3)C(=O)N5)C(=O)O)cc2)cc1 (stereo partly shown) [Example 2] . 6.17

In one line, give reported pEC50 of the entry N#Cc1ccc(-c2ccc(C[C@H](NC(=O)[C@@H]3Cc4cc5c(cc4CN3C(=O)c3ccccc3)OC(c3ccc(OCc4cc(Cl)ccc4Cl)cc3)C(=O)N5)C(=O)O)cc2)cc1 (stereo partly shown) [Example 58] . 6.25

In one line, give reported pEC50 of the entry N#Cc1ccc(-c2ccc(C[C@H](NC(=O)[C@@H]3Cc4cc5c(cc4CN3S(=O)(=O)c3cccs3)OC(c3ccc(OCc4ccc(Cl)c(Cl)c4)cc3)C(=O)N5)C(=O)O)cc2)cc1 (stereo partly shown) [Example 32] . 6.15

In one line, give reported pEC50 of the entry O=C1Nc2cc3c(cc2OC1c1ccc(OCc2ccc(Cl)c(Cl)c2)cc1)CN(C(=O)c1ccccc1)[C@H](C(=O)N[C@@H](Cc1ccc(Oc2ccncc2)cc1)C(=O)O)C3 (stereo partly shown) [Example 99] . 6.00
